Target: 5-hydroxytryptamine receptor 2C (Homo sapiens) (UniProt P28335)
Sequence (whole entry): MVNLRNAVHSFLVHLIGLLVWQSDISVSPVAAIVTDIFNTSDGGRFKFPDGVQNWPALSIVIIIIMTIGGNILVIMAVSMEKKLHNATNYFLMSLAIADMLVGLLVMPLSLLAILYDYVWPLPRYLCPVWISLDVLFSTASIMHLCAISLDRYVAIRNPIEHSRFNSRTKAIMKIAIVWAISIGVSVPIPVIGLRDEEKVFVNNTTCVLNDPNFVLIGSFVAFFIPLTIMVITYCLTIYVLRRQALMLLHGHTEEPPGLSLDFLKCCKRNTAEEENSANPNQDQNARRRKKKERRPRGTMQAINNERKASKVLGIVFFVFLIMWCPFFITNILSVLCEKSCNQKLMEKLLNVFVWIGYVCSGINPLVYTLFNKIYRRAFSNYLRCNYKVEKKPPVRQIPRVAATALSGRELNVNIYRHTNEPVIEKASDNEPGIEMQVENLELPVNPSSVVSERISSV
Assay: Agonist activity at human 5-HT2C expressed in HEK293 cells harboring luc2P/NFAT-RE plasmid at 10 uM after 6 to 8 hrs by luciferase reporter gene assay
Type: functional, cell-based
Calls of active or inactive are those of the source. How the calls were made is not given here.
measure-name: Activity

compound	system	result
COc1ccc(NC2(c3ccc(Cl)c(F)c3)C(=O)N(C3CCCCC3)C(=O)/C2=C/c2ccccc2)cc1OC (stereo not drawn)	5-hydroxytryptamine receptor 2C (Homo sapiens) (UniProt P28335)	inactive
COc1ccc(N2C(=O)C(=Cc3ccccc3)C2(C(=O)NC(C)(C)C)c2ccc(OC)cc2)cc1 (stereo not drawn)	5-hydroxytryptamine receptor 2C (Homo sapiens) (UniProt P28335)	inactive
COc1ccc(C2=C(c3ccccc3)C3(C=CC(=O)C=C3)N(C(C(=O)NC3CCCCC3)c3ccc(OC)c(C)c3)C2=O)cc1 (stereo not drawn)	5-hydroxytryptamine receptor 2C (Homo sapiens) (UniProt P28335)	inactive
O=C1C=C[C@]23C(c4ccccc4)=CC(=O)N2[C@H](c2cc(F)cc(F)c2)C(=O)N[C@@H]3C1	5-hydroxytryptamine receptor 2C (Homo sapiens) (UniProt P28335)	inactive
COc1ccc(N2C(=O)/C(=C\c3ccccc3)C2(C(=O)NC(C)(C)C)c2ccc(C(F)(F)F)cc2)cc1 (stereo not drawn)	5-hydroxytryptamine receptor 2C (Homo sapiens) (UniProt P28335)	inactive

Req: If you can, please state the reported Activity value of O=C1C=C[C@]23C(c4ccccc4)=CC(=O)N2[C@H](c2cc(F)c(F)c(F)c2)C(=O)N[C@@H]3C1 .
Resp: inactive

Req: # lookup: Activity of O=C1C=C[C@]23C(c4ccccc4)=CC(=O)N2[C@H](c2ccccc2)C(=O)N[C@@H]3C1
Resp: inactive

Req: Can you look up the measured Activity of COc1ccc(N2C(=O)/C(=C\c3ccccc3)C2(C(=O)NC(C)(C)C)c2cc(F)cc(F)c2)cc1 (stereo not drawn) for me?
Resp: inactive
